System: RPMI-8226 leukemia
Experiment: NCI-60 one-dose screen, 48 h (100 = growth as untreated, 0 = no growth, -100 = all killed)
Settings: 10 µM
Compounds without any hit were thinned out: in the full panel of roughly 83,000, 20% have a hit. Activity calls are given as the source filed them. How the source made its calls: active means growth percent below 10; inactive means the rest.
test_readout: growth

Below: 4 compounds and their reported growth.
compound: CC1=C(CN(O)C(N)=O)C2=C(C)C3(CC3)[C@](C)(O)C(=O)C2=C1
growth: -22.7% (active)
--
compound: COc1cc2c(O[C@@H]3OC[C@H](OC(C)=O)[C@H](OC(C)=O)[C@H]3O)c3c(c(-c4ccc5c(c4)OCO5)c2cc1OC)C(=O)OC3
growth: -2.08% (active)
--
compound: CC1=C[C@H]2O[C@@H]3C[C@H]4OC(=O)/C=C\C=C\[C@H]([C@@H](C)O)OCC[C@@H](C)[C@H](O)C(=O)OC[C@@]2(CC1)[C@]4(C)[C@]31CO1
growth: -28.7% (active)
--
compound: CN1C(=O)[C@]23SSC1(C)C(=O)N2[C@H]1Nc2ccccc2C1([C@@]12c4ccccc4N[C@@H]1N1C(=O)C4(C)SS[C@]1(C(=O)N4C)[C@H]2O)[C@@H]3O (stereo not given in full)
growth: -16.9% (active)

Here is the next item to consider.
Asked: Find the recorded growth belonging to NC1CCc2cc(O)c(O)cc2C1 (stereo not given) and report it.
Given back: 17.2% (inactive)

----------
System: EKVX NSCLC
Test: NCI-60 one-dose screen, 48 h (100 = growth as untreated, 0 = no growth, -100 = all killed)
Conditions: 10 µM
The panel holds about 83,000 compounds, 20% with a hit somewhere; the sample as a whole holds those more often.
test_readout: growth (%)
The response must be a number in % with no trailing unit.

Below: 3 compounds and their reported growth.
compound: COC1[C@@H]2C[C@H]3C(C)(C)O[C@@](C/C=C(/C)C(=O)O)(C2=O)[C@]32Oc3c(CC=C(C)C)c4c(c(O)c3C(=O)[C@H]12)C=CC(C)(C)O4 (some centres undefined)
growth, %: -46.5
--
compound: CC1=C2C(=C[C@@](C)(C=O)[C@@H]2O)C(=O)[C@](C)(O)C12CC2
growth, %: 15
--
compound: CC(=O)O[C@@H]1C[C@H]2O[C@@H]3C=C(C)CC[C@]3(C)[C@]1(C)[C@]21CO1
growth, %: 26

Asked: Provide value of growth for this record tested with EKVX NSCLC: CN(CCF)/N=N/c1nc[nH]c1C(N)=O
Given back: 75.9

----------
Entries and their growth values follow.
System: SK-MEL-5 melanoma
Assay: NCI-60 one-dose screen, 48 h (100 = growth as untreated, 0 = no growth, -100 = all killed)
Details: 10 µM
The panel holds about 83,000 compounds, 20% with a hit somewhere; the sample as a whole holds those more often. Calls of active or inactive are those of the source. How the source made its calls: active means growth percent below 10; inactive means the rest.

Below: 5 compounds and their reported growth.
compound: CC1=C[C@H]2O[C@@H]3C[C@@H](O)[C@](C)([C@@]2(C)CC1)[C@@]31CO1
meas_value: 12.1% (inactive)
--
compound: COc1cc(OC)c(S(=O)(=O)N(CCCl)CCCl)cc1C(=O)/C=C/c1ccc(Cl)cc1
meas_value: 87.1% (inactive)
--
compound: COc1cc2c(O[C@@H]3OC[C@H](O)[C@H](O)[C@H]3O)c3c(c(-c4ccc5c(c4)OCO5)c2cc1OC)C(=O)OC3
meas_value: -93.4% (active)
--
compound: CC1=C(CN(O)C(N)=O)C2=C(C)C3(CC3)[C@](C)(O)C(=O)C2=C1
meas_value: 85.8% (inactive)
--
compound: C/C=C\C(=O)O[C@@H]1CC2O[C@@H]3C=C(C)C(=O)C[C@]3(C)[C@]1(C)[C@]21CO1
meas_value: -57% (active)

Asked: Find the recorded growth belonging to NC1CCc2cc(O)c(O)cc2C1 (stereo not drawn) and report it.
Given back: 87.4% (inactive)
